Attribution: patent US20260365662A1

System: human neutrophils
Procedure Text: IL-8 induced neutrophil chemotaxis
Assay type: cell-based
Condition Context: IL-8 (2 nM), Donor 2
Protocol: Freshly isolated healthy human neutrophils were isolated and utilized. The neutrophils were treated with IL-8 at 2 nM or fMLP at 100 nM to induced chemotaxis. FIGS. 7A and 7B display the percentage of inhibition of 2 nm of IL-8 induced chemotaxis at different compound concentrations of Compound 3 as compared to Navarixin (comparative). […]
Quantity Measured: pIC50
Please keep in mind that pIC50 is minus log10 of the molar concentration; only the number is needed.

Exercise: Respond only with pIC50 recorded for CC[C@@H](Nc1c(Nc2cccc(C(=O)N(C)C)c2O)c(=O)c1=O)c1ccc(C)o1 [Navarixin, reference compound]
Key: 5.57

---

System: human neutrophils
Procedure Text: IL-8 induced neutrophil chemotaxis
Assay type: cell-based
Condition Context: IL-8 (2 nM), All donors
Procedure: Freshly isolated healthy human neutrophils were isolated and utilized. The neutrophils were treated with IL-8 at 2 nM or fMLP at 100 nM to induced chemotaxis. FIGS. 7A and 7B display the percentage of inhibition of 2 nm of IL-8 induced chemotaxis at different compound concentrations of Compound 3 as compared to Navarixin (comparative). […]
Quantity Measured: IC50 (µM)
Output spec: scalar in µM, unitless text.

Exercise: Consider the compound CC[C@@H](Nc1c(Nc2cccc(C(=O)N(C)C)c2O)c(=O)c1=O)c1ccc(C)o1 [Navarixin, reference compound] . State its measured IC50.
Key: 2.36
